Recorded log10 of intrinsic clearance, human liver microsomes values for a group of compounds are listed next.
Friendly reminder: values = log10 of intrinsic clearance, human liver microsomes, unit mL/min/kg.

Worked set:
{"compound": "O=C1CC[C@H](O)[C@@H](c2cccc(Cl)c2)N1Cc1ccccc1", "reported_result": 1.04}
{"compound": "Cc1cccc(-c2ncc(CNCc3ccccc3-n3cccn3)cn2)c1", "reported_result": 2.48}
{"compound": "COc1c(C)cnc(Cn2cnc3c(Cl)nc(N)nc32)c1C", "reported_result": 0.93}
{"compound": "O=C(CCc1nnc(-c2ccsc2)o1)N1CCCc2cc(F)c(F)cc21", "reported_result": 2.03}
{"compound": "O=C(C1CC1)N1CCC(CNS(=O)(=O)N2CCCCCC2)CC1", "reported_result": 1.61}
{"compound": "CNCc1cc(NC)nc(C2CCCN2C(=O)C(C)(C)c2ccc(C)cc2)n1 (stereo unspecified)", "reported_result": 1.21}

Request: Sample COCC(=O)N(CC1CCCO1)c1nc2c(s1)CCc1c-2cnn1C (stereo unspecified) — what was its log10 of intrinsic clearance, human liver microsomes?
Response: 0.80

Request: Please give the result for COc1ccc2cc(-c3[nH]c(-c4ccc(S(C)=O)cc4)nc3-c3ccncc3)ccc2c1 (stereo unspecified) too.
Response: 0.70

Request: Then this compound: CC(C)C(=O)Nc1ccc2cnn(C(C)C)c2c1
Response: 1.15

Request: Input CCOc1ncccc1-c1cc(Cl)ccc1O
Response: 1.78
